Where do the numbers come from? From patent US10077261B2.

Reported inhibition at 10 µM by item:
# STUDY_SYSTEM: hFASN enzyme (full length) (Homo sapiens)
# Construct: 10 μL hFASN enzyme (full length, 300 ng, purified in house); made in house
# ASSAY_PROTOCOL: Fatty Acid Synthase (FASN) inhibition scintillation proximity assay
# Format: biochemical
# ASSAY_SETUP: read-out: Human FASN % inhibition @ 10 μM, 10 μM test compound

MOLECULE	inhibition at 10 µM [%]
O=C(C1CC1)N1CC(CN2C(=O)C3(CC3)N=C2c2ccc(-c3ccc4ccc(F)cc4c3)cc2F)C1 [compound 324]	105
O=C(C1CC1)N1CC[C@@H](CN2C(=O)C3(CC3)N=C2c2ccc(-c3ccc4sccc4c3)cn2)C1 [compound 342]	106
Cc1cc2cc(-c3ccc(C4=NC5(CC5)C(=O)N4C[C@@H]4CCN(C(=O)C5CC5)C4)c(F)c3)ccc2[nH]1 [compound 319]	105
Cc1cc(-c2nn(C)c3ccccc23)ccc1C1=NC2(CC2)C(=O)N1CC1CN(C(=O)C2(C)CC2)C1 [compound 600]	98
Cn1cc(-c2ccc(-c3ccc(C4=NC5(CCOCC5)C(=O)N4C[C@@H]4CCN(C(=O)[C@H]5CCCO5)C4)cc3)cc2)cn1 [compound 657]	97
Cn1nc(CO)c2cc(-c3ccc(C4=NC5(CC5)C(=O)N4CC4CN(C(=O)C5CC5)C4)c(F)c3)ccc21 [compound 609]	99
O=C(C1CC1)N1CC(CN2C(=O)C3(CC3)N=C2c2ccc(-c3ccc4[nH]ncc4c3)cc2)C1 [compound 51]	102
Cn1cc(-c2ccc(-c3ccc(C4=NC5(CC5)C(=O)N4CC4CN(C(=O)C5CC5)C4)cc3)cn2)cn1 [compound 517]	88
Cc1cc(-c2ccc3c(cnn3C)c2)ccc1C1=NC2(CC2)C(=O)N1CC1CN(C(=O)C2CCC2)C1 [compound 489]	97
Cc1cc2cc(-c3ccc(C4=NC5(CCN(C(=O)C(C)C)CC5)C(=O)N4C[C@@H]4CCN(C(=O)C5CC5)C4)cc3)ccc2o1 [compound 172]	108
COC(=O)N1CC[C@@H](CN2C(=O)C3(CN(C(=O)OC)C3)N=C2c2ccc(-c3ccc4occc4c3)cc2)C1 [compound 931]	31
O=C(C1CC1)N1CC(CN2C(=O)C3(CC3)N=C2c2ccc(-c3ccc4[nH]ccc4c3)cc2)C1 [compound 40]	106
O=C(C1CC1)N1CC(CN2C(=O)C3(CC3)N=C2c2ccc(-c3nc4cc(F)c(F)cc4s3)cc2F)C1 [compound 639]	97
O=C(C1CC1)N1CC(CN2C(=O)C3(CC3)N=C2c2ccc(-c3ccc4cccc(F)c4c3)cc2F)C1 [compound 350]	99

----------
# STUDY_SYSTEM: hFASN enzyme (full length) (Homo sapiens)
# Construct: 10 μL hFASN enzyme (full length, 300 ng, purified in house); made in house
# ASSAY_PROTOCOL: Fatty Acid Synthase (FASN) inhibition scintillation proximity assay
# Format: biochemical
# ASSAY_SETUP: read-out: Human FASN % inhibition @ 10 μM, 10 μM test compound
Rule: inhibition at 10 µM of 60% or more gives Y; anything lower gives N.

MOLECULE	LABEL
Cc1cc(-c2cc(C)c3ccc(Br)cc3n2)ccc1C1=NC2(CC2)C(=O)N1CC1CN(C(=O)C2(C)CC2)C1	Y
COc1ccccc1-c1ccc(C2=NC3(CC3)C(=O)N2CC2CCN(C(=O)C3CC3)CC2)cc1	N
Cc1cc(-c2ccc(C3=NC4(CC4)C(=O)N3CC3CN(C(=O)C4CC4)C3)c(F)c2)cc2cnn(C)c12	Y
Cc1ccc2cc(-c3ccc(C4=NC5(CC5)C(=O)N4CC4CN(C(=O)C5CC5)C4)cc3)ccc2n1	Y
COC(=O)N1CC[C@@H](CN2C(=O)C3(CN(C(=O)OC)C3)N=C2c2ccc(-c3ccc(-c4cnn(C)c4)cc3)cc2)C1	N

----------
# STUDY_SYSTEM: Fatty Acid Synthase Keto-reductase Domain (FASN KR) (Homo sapiens)
pIC50: −log10 of the molar value.
If the reported pIC50 equals or exceeds 6, assign Satisfied. If not, assign Not satisfied.

MOLECULE	LABEL
O=C(C1CC1)N1CCC(CN2C(=O)C3(CCCC3)N=C2c2ccc(-c3ccc4occc4c3)cc2)CC1 [compound 75]	Not satisfied
Cc1cc(-c2ccc(-c3cnn(C)c3)cc2)ccc1C1=NC2(CC2)C(=O)N1C[C@@H]1CCN(C(=O)C2(C)CC2)C1 [compound 267]	Satisfied
O=C(N1CCCC1)N1CC(CN2C(=O)C3(CCOC3)N=C2c2ccc(-c3ccc4cccnc4c3)cc2)C1 (stereo not shown) [compound 717]	Not satisfied
Cc1cc(-c2ccc(-c3cnn(C(C)C)c3)cc2)ccc1C1=NC2(CC2)C(=O)N1CC1CN(C(=O)C2CC2)C1 [compound 325]	Satisfied
Cn1cc(-c2ccc(-c3ccc(C4=NC5(CC5)C(=O)N4C[C@H]4CCN(C(=O)C5CC5)C4)cc3)cc2)cn1 [compound 411]	Satisfied

----------
# STUDY_SYSTEM: hFASN enzyme (full length) (Homo sapiens)
# Construct: 10 μL hFASN enzyme (full length, 300 ng, purified in house); made in house
# ASSAY_PROTOCOL: Fatty Acid Synthase (FASN) inhibition scintillation proximity assay
# Assay type: biochemical
# ASSAY_SETUP: read-out: Human FASN % inhibition @ 10 μM, 10 μM test compound
In this section, each of the compounds is paired with its reported inhibition at 10 µM.

COMPOUND	STUDY_SYSTEM	UNITS_LABEL	inhibition at 10 µM
O=C(N1CC[C@@H](CN2C(=O)C3(CC3)N=C2c2ccc(-c3ccc4cc(F)ccc4c3)cc2F)C1)C1(O)CC1 [compound 381]	hFASN enzyme (full length) (Homo sapiens)	%	98
O=C(C1CC1)N1CCC(CN2C(=O)C3(CC3)N=C2c2ccc(-c3cccc(F)c3)cc2)CC1 [compound 158]	hFASN enzyme (full length) (Homo sapiens)	%	33
N#Cc1ccc2ccc(-c3ccc(C4=NC5(CC5)C(=O)N4CC4CN(C(=O)C5CC5)C4)cc3)cc2n1 [compound 611]	hFASN enzyme (full length) (Homo sapiens)	%	46
Cc1cc(-c2ccc3c(cnn3C)c2)ccc1C1=NC2(CC2)C(=O)N1CC1CN(C(=O)C2CCO2)C1 (centres unmarked) [compound 545]	hFASN enzyme (full length) (Homo sapiens)	%	101
Cc1cc(-c2ccc(Cl)cc2)ccc1C1=NC2(CCCC2)C(=O)N1C[C@@H]1CCN(C(=O)C2CC2)C1 [compound 93]	hFASN enzyme (full length) (Homo sapiens)	%	116
Cn1cc2ccc(-c3ccc(C4=NC5(CC5)C(=O)N4CC4CN(C(=O)C5CC5)C4)c(F)c3)cc2n1 [compound 227]	hFASN enzyme (full length) (Homo sapiens)	%	99
CC(O)C(=O)N1CC[C@@H](CN2C(=O)C3(CCOC3)N=C2c2ccc(-c3ccc(-c4cnn(C)c4)cc3)cc2)C1 (some centres unmarked) [compound 677]	hFASN enzyme (full length) (Homo sapiens)	%	63
O=C1Cc2ccc(-c3ccc(C4=NC5(CC5)C(=O)N4C[C@@H]4CCN(C(=O)C5CC5)C4)cc3)cc2N1 [compound 461]	hFASN enzyme (full length) (Homo sapiens)	%	95
Cc1cc(-c2ccc3c(c2)cc(C)n3C)ccc1C1=NC2(CC2)C(=O)N1CC1CN(C(=O)C2CC2)C1 [compound 582]	hFASN enzyme (full length) (Homo sapiens)	%	103
Cn1cc(-c2ccc(-c3ccc(C4=NC5(CCOC5)C(=O)N4CC4CN(S(C)(=O)=O)C4)cc3)cc2)cn1 (centres unmarked) [compound 950]	hFASN enzyme (full length) (Homo sapiens)	%	-1.27
CC(C)S(=O)(=O)c1cccc(-c2ccc(C3=NC4(CC4)C(=O)N3CC3CN(C(=O)C4CC4)C3)c(F)c2)c1 [compound 631]	hFASN enzyme (full length) (Homo sapiens)	%	47
O=C(C1CC1)N1CC[C@@H](CN2C(=O)C3(CC3)N=C2c2ccc(-c3cccc4[nH]ncc34)s2)C1 [compound 427]	hFASN enzyme (full length) (Homo sapiens)	%	91
O=C(C1CC1)N1CC[C@@H](CN2C(=O)C3(CC3)N=C2c2ccc(-c3ccc(C(F)(F)F)cc3)cc2)C1 [compound 104]	hFASN enzyme (full length) (Homo sapiens)	%	71.7
COc1cccc2cc(-c3ccc(C4=NC5(CC5)C(=O)N4CC4CN(C(=O)C5CC5)C4)c(F)c3)ccc12 [compound 635]	hFASN enzyme (full length) (Homo sapiens)	%	97

----------
# IC50 annotations
# STUDY_SYSTEM: hFASN enzyme (full length) (Homo sapiens, UniProt P49327)
# Construct: 10 μL hFASN enzyme (full length, 300 ng, purified in house); made in house
# Sequence (P49327 whole entry): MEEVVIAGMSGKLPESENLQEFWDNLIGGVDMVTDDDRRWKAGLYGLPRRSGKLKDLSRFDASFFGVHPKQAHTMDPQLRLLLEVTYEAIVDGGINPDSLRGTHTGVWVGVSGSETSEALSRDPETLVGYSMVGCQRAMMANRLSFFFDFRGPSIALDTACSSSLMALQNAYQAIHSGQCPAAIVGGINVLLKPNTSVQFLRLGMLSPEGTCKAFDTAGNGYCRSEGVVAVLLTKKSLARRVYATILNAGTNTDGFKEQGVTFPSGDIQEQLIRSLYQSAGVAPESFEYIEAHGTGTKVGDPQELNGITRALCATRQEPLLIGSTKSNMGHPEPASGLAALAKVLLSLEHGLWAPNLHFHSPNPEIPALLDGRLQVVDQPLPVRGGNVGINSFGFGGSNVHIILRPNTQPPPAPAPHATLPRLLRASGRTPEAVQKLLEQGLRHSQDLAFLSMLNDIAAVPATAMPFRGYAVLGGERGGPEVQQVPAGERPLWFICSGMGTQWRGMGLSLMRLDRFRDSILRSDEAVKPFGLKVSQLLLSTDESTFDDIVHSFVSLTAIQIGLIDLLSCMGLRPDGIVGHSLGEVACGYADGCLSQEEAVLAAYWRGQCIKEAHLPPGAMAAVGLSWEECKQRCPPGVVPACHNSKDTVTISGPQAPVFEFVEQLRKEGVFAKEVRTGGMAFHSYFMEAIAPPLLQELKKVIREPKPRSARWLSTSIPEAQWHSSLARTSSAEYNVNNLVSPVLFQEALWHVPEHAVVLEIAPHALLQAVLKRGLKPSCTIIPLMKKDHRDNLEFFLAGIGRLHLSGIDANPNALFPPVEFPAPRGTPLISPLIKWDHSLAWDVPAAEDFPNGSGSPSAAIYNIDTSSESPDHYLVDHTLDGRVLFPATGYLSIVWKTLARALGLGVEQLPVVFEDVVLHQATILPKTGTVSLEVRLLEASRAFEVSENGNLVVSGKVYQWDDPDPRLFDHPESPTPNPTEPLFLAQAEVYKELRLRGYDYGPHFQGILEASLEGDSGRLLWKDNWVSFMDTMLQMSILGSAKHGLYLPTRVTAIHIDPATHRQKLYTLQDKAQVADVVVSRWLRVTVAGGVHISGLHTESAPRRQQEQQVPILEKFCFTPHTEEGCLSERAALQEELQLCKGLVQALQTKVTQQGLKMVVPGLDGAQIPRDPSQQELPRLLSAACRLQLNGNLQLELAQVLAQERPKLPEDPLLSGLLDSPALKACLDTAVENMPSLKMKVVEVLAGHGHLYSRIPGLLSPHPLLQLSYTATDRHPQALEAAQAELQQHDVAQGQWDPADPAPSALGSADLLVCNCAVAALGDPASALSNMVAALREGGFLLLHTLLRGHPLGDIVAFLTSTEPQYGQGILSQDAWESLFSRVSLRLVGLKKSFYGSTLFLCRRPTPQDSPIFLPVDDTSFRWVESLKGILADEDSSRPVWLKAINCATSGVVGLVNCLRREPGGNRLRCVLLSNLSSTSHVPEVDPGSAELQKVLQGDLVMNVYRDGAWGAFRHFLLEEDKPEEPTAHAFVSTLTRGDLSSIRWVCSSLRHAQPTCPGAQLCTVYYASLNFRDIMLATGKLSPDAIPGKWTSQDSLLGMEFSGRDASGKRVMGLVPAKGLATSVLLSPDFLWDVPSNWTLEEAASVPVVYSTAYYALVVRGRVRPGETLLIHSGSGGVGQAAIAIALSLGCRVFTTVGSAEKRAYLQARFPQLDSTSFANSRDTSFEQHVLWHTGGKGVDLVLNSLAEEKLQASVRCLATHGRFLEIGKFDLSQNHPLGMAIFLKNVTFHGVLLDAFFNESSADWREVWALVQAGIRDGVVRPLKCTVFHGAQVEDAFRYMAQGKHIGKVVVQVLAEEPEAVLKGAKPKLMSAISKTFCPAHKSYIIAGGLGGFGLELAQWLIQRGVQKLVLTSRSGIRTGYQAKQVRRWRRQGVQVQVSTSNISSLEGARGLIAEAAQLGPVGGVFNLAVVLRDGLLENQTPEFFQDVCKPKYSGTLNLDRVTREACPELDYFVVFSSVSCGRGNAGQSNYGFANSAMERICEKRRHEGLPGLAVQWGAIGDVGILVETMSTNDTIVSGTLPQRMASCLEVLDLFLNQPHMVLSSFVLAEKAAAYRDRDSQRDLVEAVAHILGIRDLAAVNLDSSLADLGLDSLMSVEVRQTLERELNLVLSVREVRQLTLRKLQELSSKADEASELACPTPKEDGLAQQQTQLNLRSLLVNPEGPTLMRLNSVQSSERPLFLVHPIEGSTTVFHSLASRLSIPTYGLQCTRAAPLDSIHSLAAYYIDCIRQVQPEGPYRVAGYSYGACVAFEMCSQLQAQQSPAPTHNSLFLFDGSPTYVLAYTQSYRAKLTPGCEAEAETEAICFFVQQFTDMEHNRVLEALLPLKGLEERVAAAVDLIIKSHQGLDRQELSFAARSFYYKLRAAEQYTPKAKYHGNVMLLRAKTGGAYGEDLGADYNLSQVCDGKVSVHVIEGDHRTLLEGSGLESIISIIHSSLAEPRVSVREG
# ASSAY_PROTOCOL: Fatty Acid Synthase (FASN) inhibition scintillation proximity assay
# Format: biochemical
# ASSAY_SETUP: read-out: Human FASN pIC50 (converted)
OBSERVABLE: IC50

MOLECULE	OBS_VALUE
N#Cc1ccc2ccc(-c3ccc(C4=NC5(CC5)C(=O)N4CC4CN(C(=O)C5(O)CC5)C4)c(F)c3)cc2c1	0.617 µM
O=C(C1CC1)N1CC[C@@H](CN2C(=O)C3(CCCC3)N=C2c2ccc(-c3ccnc(N4CCNCC4)c3)cc2)C1	> 10 µM
O=C(C1CC1)N1CC[C@H](CN2C(=O)C3(CC3)N=C2c2ccc(-c3ccc(O)cc3)cc2)C1	5.13 µM
O=C(C1CC1)N1CC[C@@H](CN2C(=O)C3(CCCC3)N=C2c2ccc(-c3ccccn3)cc2)C1	> 10 µM
O=C(C1CC1)N1CC(CN2C(=O)C3(CCCC3)N=C2c2ccc(-c3ccc4occc4c3)cc2)C1	0.437 µM
COC(=O)N1CC[C@@H](CN2C(=O)C3(CCOCC3)N=C2c2ccc(-c3ccc4c(cnn4C)c3)cc2)C1	> 10 µM
Cc1cc(-c2ccc(-c3ccnn3CC(C)C)cc2)ccc1C1=NC2(CC2)C(=O)N1CC1CN(C(=O)C2(C)CC2)C1	> 10 µM
